# System: 898857-211-R-J1-PDC complex spheroids, growth % test/control;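 note: spheroids exposed to compound for seven days before readout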
# Assay notes: Anticancer human tumor 898857-211-R-J1-PDC patient-derived melanoma cell line growth inhibition [RAS]
# Test context: curve of first compound; second compound 0.00316 µM
Measured metric: pIC50
In plain terms, pIC50 is the concentration in mol/L turned into minus its base-10 logarithm.

C=CC(=O)Nc1cc(Nc2nccc(-c3cn(C)c4ccccc34)n2)c(OC)cc1N(C)CCN(C)C + C=CC(=O)N1CCN(c2nc(OCC3CCCN3C)nc3c(F)c(-c4nc(N)cc(C)c4C(F)(F)F)c(Cl)cc23)C(C)C1: 6.03
O=C(c1ccc(F)c(F)c1Nc1ccc(I)cc1F)N1CC(O)([C@@H]2CCCCN2)C1 + C=CC(=O)N1CCN(c2nc(OCC3CCCN3C)nc3c(F)c(-c4nc(N)cc(C)c4C(F)(F)F)c(Cl)cc23)C(C)C1: 8.29

-- ask Give the value of pIC50 reported for the following: CC1(O)CCCC1n1c(=O)c(C(F)F)cc2cnc(NC3CCN(S(C)(=O)=O)CC3)nc21 (centres undefined) + C=CC(=O)N1CCN(c2nc(OCC3CCCN3C)nc3c(F)c(-c4nc(N)cc(C)c4C(F)(F)F)c(Cl)cc23)C(C)C1
-- reply 6.64

Source: PubChem BioAssay AID2060882
